Ends that are not written are not given here.
Parameter measured: shift of terminal NH3+ apparent pKa vs theoretical

Task: So what does the record say about shift of terminal NH3+ apparent pKa vs theoretical for EFKFEFKFE [E(FKFE)2] ?
Output: 1 unit
